# Test system: H. pylori (ATCC 43504)
# CONDITION_NOTES: ATCC 43504, 24 h
Non-standard residues stand in square brackets, D forms with d. Residues, ends and D or L forms follow the SMILES beside them.
Answer each item with its documented MIC on H. pylori (ATCC 43504).
Write the answer as a number in µM, unit excluded.

Enquiry: // query MIC on H. pylori (ATCC 43504) value for entry CC[C@H](C)[C@H](NC(=O)[C@@H](C)NC(=O)[C@H](CO)NC(=O)[C@H](CC(C)C)NC(=O)[C@@H](N)Cc1ccccc1)C(=O)N[C@H](C(=O)N[C@H](C)C(=O)N[C@@H](CCSC)C(=O)N[C@@H](CC(C)C)C(=O)N[C@H](C)C(=O)N[C@@H](CCCCN)C(=O)N[C@@H](CC(C)C)C(=O)N[C@@H](Cc1ccccc1)C(N)=O)C(C)C [NST5] (H-FLS[dA]IV[dA]ML[dA]KLF-NH2)
Return: 100

Enquiry: // query MIC on H. pylori (ATCC 43504) value for entry CC[C@H](C)[C@H](NC(=O)[C@H](C)NC(=O)[C@H](CO)NC(=O)[C@H](CC(C)C)NC(=O)[C@@H](N)Cc1ccccc1)C(=O)N[C@H](C(=O)NCC(=O)N[C@@H](CCSC)C(=O)N[C@@H](CC(C)C)C(=O)N[C@@H](C)C(=O)N[C@@H](CCCCN)C(=O)N[C@@H](CC(C)C)C(=O)N[C@@H](Cc1ccccc1)C(N)=O)C(C)C [NSTL7] (H-FLSAIVGMLAKLF-NH2)
Return: 50

---

# System: N87 cells
# ASSAY_METHOD_TEXT: In vitro toxicity assay using human gastric cells (resazurin)
# Type: cell-based
Non-standard residues stand in square brackets, D forms with d. Residues, ends and D or L forms follow the SMILES beside them.
EXPERIMENTAL_READOUT: increase in toxicity to human gastric cells compared to temporin-SHa

CC[C@H](C)[C@H](NC(=O)[C@@H](C)NC(=O)[C@H](CO)NC(=O)[C@H](CC(C)C)NC(=O)[C@@H](N)Cc1ccccc1)C(=O)N[C@H](C(=O)NCC(=O)N[C@@H](CCSC)C(=O)N[C@@H](CC(C)C)C(=O)N[C@H](C)C(=O)N[C@@H](CCCCN)C(=O)N[C@@H](CC(C)C)C(=O)N[C@@H](Cc1ccccc1)C(N)=O)C(C)C [NST7] (H-FLS[dA]IVGML[dA]KLF-NH2); around 15 fold
CC[C@H](C)[C@H](NC(=O)[C@@H](C)NC(=O)[C@H](CO)NC(=O)[C@H](CC(C)C)NC(=O)[C@@H](N)Cc1ccccc1)C(=O)N[C@H](C(=O)N[C@H](C)C(=O)N[C@@H](CCSC)C(=O)N[C@@H](CC(C)C)C(=O)N[C@H](C)C(=O)N[C@@H](CCCCN)C(=O)N[C@@H](CC(C)C)C(=O)N[C@@H](Cc1ccccc1)C(N)=O)C(C)C [NST5] (H-FLS[dA]IV[dA]ML[dA]KLF-NH2); twice
CC[C@H](C)[C@H](NC(=O)CNC(=O)[C@H](CO)NC(=O)[C@H](CC(C)C)NC(=O)[C@@H](N)Cc1ccccc1)C(=O)N[C@H](C(=O)N[C@H](C)C(=O)N[C@@H](CCSC)C(=O)N[C@@H](CC(C)C)C(=O)N[C@H](C)C(=O)N[C@@H](CCCCN)C(=O)N[C@@H](CC(C)C)C(=O)N[C@@H](Cc1ccccc1)C(N)=O)C(C)C [NST6] (H-FLSGIV[dA]ML[dA]KLF-NH2); around 15 fold
